assay: APR_HepG2_P-H2AX_24hr: Apredica 24-hour HepG2 Assay for H2AX Phosphorylation (AID 2282920); conditions: high-content imaging, actives raise or lower the signal
Active and inactive are the calls of the source. Rule for the calls: active = hit-call score of the fitted dose curve at least 0.9, where 1 is the maximum; inactive = score below 0.9.
Labels: T (active), F (inactive)

molecule | class-assignment
CCOC(N)=O | F
CC1(C)C(=O)N(Cl)C(=O)N1Cl | F
COc1cc2c(c(OC)c1OC)-c1ccc(OC)c(=O)cc1[C@@H](NC(C)=O)CC2 | T
Cc1nccn1-c1ccc(Sc2cccc(C3(C(N)=O)CCOCC3)c2)cc1 | T
CCN(CC)C(=S)SSC(=S)N(CC)CC | T
CC(C)C(=O)Nc1ccc([N+](=O)[O-])c(C(F)(F)F)c1 | T
CCCCC(CC)C(=O)OCCOCCOCCOC(=O)C(CC)CCCC (stereo unspecified) | F
CCCc1ccccc1 | F
NNC(=O)c1ccncc1 | F
COCc1nnc(-c2ccc[n+]([O-])c2)n1-c1c(Cl)c(Cl)cc2[nH]c(=O)c(=O)[nH]c12 | F
NC(=O)N(O)[C@@H]1COc2cc(OCc3ccccc3)ccc21 | F
OCC(CO)(CO)CO | F
NC(=O)N1c2ccccc2C=Cc2ccccc21 | F
O=C(O)c1ccc2c(c1)nc(C(=O)NC1CCN(C3CC3)CC1)n2Cc1cc(-c2ccc(Cl)s2)on1 | F
c1ccc(C(O[C@@H]2CCCN(CCc3ccc4c(c3)OCO4)C2)c2ccccc2)cc1 | T
O=C(NO)C1(NS(=O)(=O)c2ccc(Oc3ccc(F)cc3)cc2)CCOCC1 | F
CCCCCCCC1CCC(=O)O1 (stereo unspecified) | F
C=CN1CCCC1=O | F
O=S(=O)(O)c1ccc(N=Nc2c(O)ccc3cc(S(=O)(=O)O)ccc23)cc1 | F
O=S1(=O)CCCO1 | F
Cn1cc[nH]c1=S | F
CCCCN1C(=O)[C@@H]([C@H](O)C2CCCCC2)NC(=O)C12CCN(Cc1ccc(Oc3ccc(C(=O)O)cc3)cc1)CC2 | T
CCCCCCCCN(C)C | F
OCCNCCO | F
OC[C@H]1O[C@@](CO)(O[C@H]2O[C@H](CO)[C@@H](O)[C@H](O)[C@H]2O)[C@@H](O)[C@@H]1O | F
CCCCCOC(C)=O | F

Data origin, for the record: PubChem BioAssay (EPA / NIEHS)
